- Tested on: HepG2
- test-protocol: GSK_TCMDC: Percent inhibition of human HepG2 cell line. Test compounds present at 10uM.
- Type: functional
recorded-metric: Inhibition (%)
Just the number in %, nothing appended.

The cases that follow already have their Inhibition on record.
INSERT INTO assay_data (compound, test_result) VALUES
  ('Cc1cccc2nc(-c3ccc(-c4ccc(CN5CCN(CCN6CCOCC6)CC5)cc4)cc3)[nH]c12.O=C(O)C(F)(F)F', 49),
  ('Nc1nc(N)c2c(ccc3c2ccn3Cc2cc3c(cc2Cl)OCO3)n1', 58),
  ('CCC(C)NS(=O)(=O)c1ccc2nc(Nc3ccc(C)cc3)n([C@H](C)C(C)(C)C)c2c1 (some centres undefined)', 2);

*Q* Indicate its recorded Inhibition; the compound in question is CCC(=O)OC(CCN(CC)CC)(c1ccccc1)c1ccccc1
*A* 30

*Q* Using known records, supply Inhibition for COc1ccc(CN2CCC(NCc3cccc(-n4ccnc4)c3)CC2)cc1.O=C(O)C(F)(F)F
*A* 10

*Q* State its Inhibition for this compound: COc1cc(F)c2ncc(F)c([C@@H](O)CN3CCC(NCc4cc5c(cn4)OCCO5)CC3)c2c1.Cl
*A* 1

*Q* Determine from records and report Inhibition for CC(CN1CCN(C)CC1)C(=O)Nc1cccc(-c2ccc(-c3nc4ccccc4[nH]3)s2)c1 (centres undefined)
*A* 2

*Q* // fetch Inhibition given entry Cc1cccc2nc(-c3cccc(-c4cccc(NC(=O)c5cncn5C)c4)c3)[nH]c12
*A* 0

*Q* Please indicate Inhibition recorded for Brc1ccc(Nc2ccnc3cc(-c4nccs4)ccc23)cc1Oc1ccnc2cc(-c3nccs3)ccc12
*A* 15

###

Each entry below lists one item and its recorded Inhibition value.
- Tested on: Plasmodium falciparum
- test-protocol: GSK_TCMDC: Inhibition of Plasmodium falciparum Dd2 in whole red blood cells, using parasite LDH activity as an index of growth. Test compounds present at 2uM
- Assay type: functional
Report the figure in % without appending any unit label.

Some solved cases for reference:
INSERT INTO assay_data (smi, experimental_target, recorded_metric, test_result) VALUES
  ('FC(F)(F)c1ccc2nccc(NCc3ccccc3)c2c1', 'Plasmodium falciparum', 'Inhibition', 56),
  ('Br.COc1ccc(OCCCCON2C(=N)N=C(N)NC2(C)C)cc1', 'Plasmodium falciparum', 'Inhibition', 95),
  ('COc1ccc(Cn2ncc3c4c(N)nc(N)nc4ccc32)cc1OC', 'Plasmodium falciparum', 'Inhibition', 95),
  ('CCC(C)(C)n1c(C)cc2c3c(N)nc(N)nc3ccc21', 'Plasmodium falciparum', 'Inhibition', 85),
  ('COc1ccc2ncc(Cl)c([C@H](O)CN3CCC(NCc4cc5c(cn4)OCCO5)CC3)c2c1.Cl', 'Plasmodium falciparum', 'Inhibition', 100),
  ('Cc1noc(C)c1-c1ccc2c(Nc3ccccc3C(C)(C)C)c(C(=O)NCc3ccc(OC(C)C)cc3)cnc2c1.Cl', 'Plasmodium falciparum', 'Inhibition', 98),
  ('CCOc1ccc(-c2nonc2NC(=O)c2ccc(F)cc2)cc1OCC', 'Plasmodium falciparum', 'Inhibition', 99),
  ('Cc1noc(C)c1-c1cccc(CNCc2ccc(-c3ccc(-c4nc5cccc(C)c5[nH]4)cc3)cc2)c1.O=C(O)C(F)(F)F', 'Plasmodium falciparum', 'Inhibition', 95);

*Q* Give a short answer stating reported Inhibition for COc1cccc(CN2CCN(C(c3ccccc3)c3ccccc3)CC2)c1O.O=C(O)C(=O)O .
*A* 98

*Q* Note Inhibition for the molecule shown: Cc1nc2ccc(NC(=O)Nc3ccnc4ccc(C(F)(F)F)cc34)cc2o1
*A* 24

Reference source for all entries: ChEMBL document CHEMBL1157539
